- studySystem: Endoribonuclease Dicer (Homo sapiens)
- assayProcedure: Dicer cleavage of pre-miR-21 blockers – biochemical, cat-ELCCA, chemiluminescence, primary screen (AID 1347074);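 note: plate controls were vehicle for no effect and no enzyme for full effect; higher signal means more uncleaved substrate so more Dicer inhibition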
- assayConditions: cat-ELCCA pre-miR-21 Dicer processing, at 25 µM, active compounds read high
Hit rate of the full screen: of about 47,000 compounds, about 2,800 (6%) were called active. The list comes from a sample in which actives are over-represented; it also holds close analogues and randomly drawn compounds.
measurementName: z-score
Give bare numbers.

COc1ccc(C2N3CC4(C)CN2CC(C)(C3)C4)cc1 (stereo not drawn) = 1.02
CCN(CC)c1ccc(C2Nc3ccccc3-c3cc(C)nn32)c(O)c1 (stereo not drawn) = 0.47
CC(CC(=O)O)Oc1ccc(Cl)cc1[N+](=O)[O-] (stereo not drawn) = -0.09
O=c1c2cc(-c3ccccc3)sc2n(Cc2ccccc2Cl)c(=O)n1-c1ccccc1 = 0.38
C/C(=N\NS(=O)(=O)c1ccc(Cl)cc1)c1cc(-c2ccccc2)no1 = -0.51

// each compound listed below needs its z-score
1. Cc1ccc(S(=O)(=O)NC(=O)Nc2nc(-c3ccc(F)c(F)c3)cs2)cc1
2. Cc1oc2cc(Br)c(O)cc2c1C(=O)OC(C)C
3. CC12c3ccccc3C(c3ccccc31)C1C(=O)N(c3ccc(C(=O)O)cc3)C(=O)C12 (stereo not drawn)
4. CC(C)c1ccc(C2N3CC4(C)CN2CC(C)(C3)C4)cc1 (stereo not drawn)
5. CCOC(=O)Cc1nnc2c(Nc3cccc(Br)c3)nc3nonc3n12
6. COc1ccc(C(=O)COc2cc3c(C(=O)OC(C)C)c(C)oc3cc2Br)cc1

-0.18
3.81
0.79
4.83
3.07
0.17

// each compound listed below needs its z-score
1. COC(=O)c1ccc(S(=O)(=O)NCc2ccccc2)n1C
2. CCOCc1ccc2oc(C(=O)OCCN(CC)CC)cc2c1
3. Cc1cc(C)c2c(c1)-c1cc(C)nn1C(c1ccc(O)cc1)N2 (stereo not drawn)
4. COc1cc(OC)cc(-c2nc3n(n2)C(c2cccc(OC)c2OC)C2=C(CCCC2=O)N3)c1 (stereo not drawn)
5. C(#CCN1CCCCC1)COC(c1ccccc1)c1ccccc1
6. O=C(Nc1cccc(Br)c1)c1csc2c1CCCC2
7. Cc1oc2cc(Br)c(OC(=O)c3ccco3)cc2c1C(=O)OC(C)C

1: 1.21; 2: 0.17; 3: 2.1; 4: -0.15; 5: 4.06; 6: 5.59; 7: 1.65

// each compound listed below needs its z-score
1. CCOC(=O)Cc1csc(NC(=O)Nc2ccccc2)n1
2. O=C(NC(=S)Nc1nc(-c2ccc(Cl)cc2)cs1)C1CC1
3. CCCN1C(=O)C2(/C(=C(/O)c3ccc(F)cc3)C(=O)C(=O)N2CCCN(C)C)c2ccccc21 (stereo not drawn)
4. O=C(NCc1ccccn1)C(=O)Nc1cccc(Br)c1
5. COC(=O)c1sccc1Oc1ccc(Cl)cc1[N+](=O)[O-]

-0.51
1.34
-0.34
1.05
-0.2

====

- studySystem: Endoribonuclease Dicer (Homo sapiens)
- assayProcedure: Dicer cleavage of pre-miR-21 blockers – biochemical, cat-ELCCA, chemiluminescence, primary screen (AID 1347074)
- assayConditions: cat-ELCCA pre-miR-21 Dicer processing, at 25 µM
The whole screen tested about 47,000 compounds, of which about 2,800 (6%) were called active. Rule as the data show it: active = z-score above about 3 (passing the limit was not always enough); inactive = the rest. The sample holds actives, similar compounds and a random draw of the others, so the mix is not that of the screen.
Could you please pick one outcome from this set? active, inactive

Examples from the recorded data:
CCOC(=O)c1c(N/N=C\c2ccccc2O)n[nH]c1C = inactive
Cc1cc(=O)[nH]c(SCc2cn3c(C)cc(C)nc3n2)n1 = inactive
CCC(C)c1ccc(O)c(/C=N/Nc2ccccc2)c1 (stereo unspecified) = active
CCCCOCC1CC2(CC(C)(c3csc(Nc4ccccc4Cl)n3)OC2=O)C(=O)O1 (stereo unspecified) = inactive
Cc1cc(=O)[nH]c(SCc2cn3cccnc3n2)n1 = active

Any idea what this test logged for CC(=O)NC(Cc1c[nH]c2ccccc12)C(=O)O (stereo unspecified) ?
inactive

====

- studySystem: Endoribonuclease Dicer (Homo sapiens) (UniProt Q9UPY3)
- Sequence (Q9UPY3 whole entry, looked up): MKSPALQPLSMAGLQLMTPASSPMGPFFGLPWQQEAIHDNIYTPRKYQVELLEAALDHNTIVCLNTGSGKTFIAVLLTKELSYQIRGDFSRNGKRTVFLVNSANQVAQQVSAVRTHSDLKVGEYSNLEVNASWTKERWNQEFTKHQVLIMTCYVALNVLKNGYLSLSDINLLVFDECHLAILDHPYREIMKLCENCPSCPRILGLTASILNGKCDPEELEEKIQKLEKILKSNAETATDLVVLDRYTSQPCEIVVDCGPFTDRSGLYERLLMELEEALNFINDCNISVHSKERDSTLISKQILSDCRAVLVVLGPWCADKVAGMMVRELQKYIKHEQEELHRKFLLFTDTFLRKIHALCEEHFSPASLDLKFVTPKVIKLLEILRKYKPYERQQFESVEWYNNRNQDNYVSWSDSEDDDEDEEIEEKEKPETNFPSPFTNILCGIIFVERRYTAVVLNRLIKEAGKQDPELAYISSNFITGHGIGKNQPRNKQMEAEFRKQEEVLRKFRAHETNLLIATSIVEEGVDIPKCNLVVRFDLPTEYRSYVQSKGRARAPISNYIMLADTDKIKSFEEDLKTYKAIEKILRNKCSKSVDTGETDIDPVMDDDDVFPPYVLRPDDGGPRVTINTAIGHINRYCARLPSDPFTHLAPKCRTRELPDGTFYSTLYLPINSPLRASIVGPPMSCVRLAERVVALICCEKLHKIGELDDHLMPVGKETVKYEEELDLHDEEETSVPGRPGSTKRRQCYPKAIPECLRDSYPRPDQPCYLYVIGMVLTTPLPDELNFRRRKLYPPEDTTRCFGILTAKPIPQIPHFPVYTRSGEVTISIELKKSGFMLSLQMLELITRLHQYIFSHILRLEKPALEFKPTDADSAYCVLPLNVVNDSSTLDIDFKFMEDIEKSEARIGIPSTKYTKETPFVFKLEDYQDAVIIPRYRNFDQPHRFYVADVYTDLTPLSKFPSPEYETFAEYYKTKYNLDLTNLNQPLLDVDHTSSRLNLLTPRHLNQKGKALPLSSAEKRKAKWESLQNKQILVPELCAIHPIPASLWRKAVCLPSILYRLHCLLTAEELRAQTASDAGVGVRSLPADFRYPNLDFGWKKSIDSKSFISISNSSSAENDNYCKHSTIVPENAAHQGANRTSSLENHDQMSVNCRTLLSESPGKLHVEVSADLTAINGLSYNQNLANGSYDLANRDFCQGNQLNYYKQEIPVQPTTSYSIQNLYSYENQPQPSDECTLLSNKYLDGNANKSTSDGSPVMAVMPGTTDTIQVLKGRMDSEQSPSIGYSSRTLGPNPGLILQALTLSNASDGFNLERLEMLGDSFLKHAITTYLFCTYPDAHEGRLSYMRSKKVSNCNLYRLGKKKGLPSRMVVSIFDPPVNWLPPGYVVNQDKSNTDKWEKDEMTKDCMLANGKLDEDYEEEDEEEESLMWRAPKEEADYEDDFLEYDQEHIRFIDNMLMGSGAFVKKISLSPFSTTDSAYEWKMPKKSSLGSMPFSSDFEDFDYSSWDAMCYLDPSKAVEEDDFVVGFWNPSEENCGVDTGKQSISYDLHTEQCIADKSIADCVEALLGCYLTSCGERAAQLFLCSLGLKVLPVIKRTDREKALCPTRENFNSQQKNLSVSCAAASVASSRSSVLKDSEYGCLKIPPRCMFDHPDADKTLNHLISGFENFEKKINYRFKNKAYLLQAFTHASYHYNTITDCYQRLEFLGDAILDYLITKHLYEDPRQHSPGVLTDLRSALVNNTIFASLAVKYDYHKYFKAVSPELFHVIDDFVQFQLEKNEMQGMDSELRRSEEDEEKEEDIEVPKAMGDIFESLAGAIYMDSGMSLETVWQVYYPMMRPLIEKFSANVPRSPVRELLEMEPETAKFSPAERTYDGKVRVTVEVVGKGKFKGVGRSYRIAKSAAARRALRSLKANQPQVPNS
- assayProcedure: Dicer cleavage of pre-miR-21 blockers – biochemical, cat-ELCCA, chemiluminescence, primary screen (AID 1347074);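 note: plate controls were vehicle for no effect and no enzyme for full effect; higher signal means more uncleaved substrate so more Dicer inhibition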
- assayConditions: cat-ELCCA pre-miR-21 Dicer processing, at 25 µM, active compounds read high
Out of some 47,000 compounds screened, about 2,800 (6%) were called active. The sample as a whole holds a higher share of actives than the screen did.
I would appreciate it if you labelled entries class 1 when z-score is 0.9 or higher, otherwise class 0.

Examples from the recorded data:
COc1ncnc2sc(C(=O)O)c(C)c12 = class 0
O=C(NC1(NCc2ccc(Cl)cc2)C(=O)c2ccccc2C1=O)c1ccc(C(F)(F)F)cc1 = class 0
O=C(NC(=O)c1c(F)cccc1F)Nc1ccc(Br)cc1F = class 0

In plain terms: is recorded z-score at least 0.9 for FC(F)(F)c1cccc(NC(=S)NNc2nccc(C(F)(F)F)n2)c1 ?
class 1

In plain terms: is recorded z-score at least 0.9 for CCCCN1C(=O)C(c2c(C)[nH]n(-c3ccccc3)c2=O)(C(F)(F)F)C2=C1CC(C)(C)CC2=O (stereo not drawn) ?
class 0

====

- studySystem: Endoribonuclease Dicer (Homo sapiens) (UniProt Q9UPY3)
- assayProcedure: Dicer cleavage of pre-miR-21 blockers – biochemical, cat-ELCCA, chemiluminescence, primary screen (AID 1347074);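 note: plate controls were vehicle for no effect and no enzyme for full effect; higher signal means more uncleaved substrate so more Dicer inhibition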
- assayConditions: cat-ELCCA pre-miR-21 Dicer processing, at 25 µM, active compounds read high
The whole screen tested about 47,000 compounds, of which about 2,800 (6%) were called active. The list comes from a sample in which actives are over-represented; it also holds close analogues and randomly drawn compounds.
measurementName: z-score
Numbers only.

# annotated cases, reported z-score shown
CC(C)(C)NC(=O)NCCCN1CCOCC1 = 0.22
S=c1[nH]nc(CSCc2nc(-c3ccccc3)cs2)n1-c1ccc(Cl)cc1 = -0.05
c1ccc(CN2CCN(Cc3cn[nH]c3-c3ccccc3)CC2)cc1 = -2.57
O=C1CC(NCC2CCCCC2)C(=O)N1c1ccccc1 (stereo unspecified) = 3.63
COc1ccc(CN2CCN(Cc3ccccc3OC)CC2)cc1Br = 3.53

// each compound listed below needs its z-score
1. Brc1cccc(CN2CCN(Cc3cccnc3)CC2)c1
2. Cn1c(SCC(=O)Nc2cccc(C(F)(F)F)c2)nnc1SCC(=O)Nc1cccc(C(F)(F)F)c1
3. Cc1c(Cc2c(F)cccc2Cl)c(=O)oc2cc(OC(=O)c3ccccc3Cl)ccc12
4. CCn1c(CSc2nc(-c3ccc(Cl)cc3)cn2-c2ccc(C)cc2)n[nH]c1=S
5. CSc1sc(C(=O)NN)cc1C#N

1.06
-0.05
-0.2
5.38
1.26

For the compound Cc1ccc(NC(=O)C/C(N)=N/O)cc1Cl , give its reported z-score.
1.48

====

- studySystem: Endoribonuclease Dicer (Homo sapiens) (UniProt Q9UPY3)
- assayProcedure: Dicer cleavage of pre-miR-21 blockers – biochemical, cat-ELCCA, chemiluminescence, primary screen (AID 1347074);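 note: plate controls were vehicle for no effect and no enzyme for full effect; higher signal means more uncleaved substrate so more Dicer inhibition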
- assayConditions: cat-ELCCA pre-miR-21 Dicer processing, at 25 µM, active compounds read high
Out of some 47,000 compounds screened, about 2,800 (6%) were called active. Many of the other results were omitted from the sample, so actives are more common in it than they were.
measurementName: z-score
Numbers only.

# annotated cases, reported z-score shown
Cc1cc(NC(=O)Nc2ccccc2)n(-c2ccccc2)n1 = -0.46
O=C(O)CCc1nc2ccccc2[nH]c1=O = -2.59
CS(=O)(=O)N(CC(=O)O)c1cccc2ccccc12 = -1.7
CCOC(=O)C1=C(O)CSC1=Nc1ccc(F)cc1 = 2.03
Nc1c(C(=O)NNC(=S)Nc2ccccc2)cnn1-c1ccccc1 = 3.4

// each compound listed below needs its z-score
1. CCOC(=O)C1Cn2c(nc3c(c2=O)C(C)(CC)Cc2ccccc2-3)S1 (centres undefined)
2. Cn1ccnc1SCC(=O)Nc1cccc2nsnc12
3. O=C(O)/C=C/C(=O)Nc1cccc([N+](=O)[O-])c1
4. CC1(C)Cc2c(sc3ncn4nc(-c5ccco5)nc4c23)C(C)(C)N1
5. CCOc1ccc(S(=O)(=O)N2CCSC2c2cccc(Cl)c2)cc1 (centres undefined)
6. O=C1c2cccnc2C(=O)N1c1ccc(-c2nc3ccccc3o2)cc1

1. 3.52
2. -4.69
3. 1.26
4. 0.09
5. 1.41
6. 2.88

// each compound listed below needs its z-score
1. Nc1nc2c(c(=O)[nH]1)C(c1ccccc1F)CC(=O)N2 (centres undefined)
2. O=C1c2ccccc2C(=O)C1c1ccccc1F
3. CS(=O)(=O)N1N=C(c2c(-c3ccccc3)c3cc(Cl)ccc3[nH]c2=O)CC1c1cccs1 (centres undefined)
4. O=C(c1cccn1-c1ccc(F)cc1)C(F)(F)F
5. COc1cccc2c1OC(c1ccccc1F)N1N=C(c3ccccc3O)CC21 (centres undefined)

[-1.01, 20.4, 0.27, -0.2, 5.58]

// each compound listed below needs its z-score
1. CCOC(=O)c1c(C)oc2ccc(OCc3ccc(C(=O)OC)cc3)cc12
2. O=C(CN1C(=O)c2ccccc2S1(=O)=O)NC1CCCCC1
3. CCOCCOC(=O)C1=C(C)NC2=C(C(=O)CCC2)C1c1ccc(O)c(OCC)c1 (centres undefined)
4. CN(C)C(=O)Sc1nnc(C2CC2)n1-c1ccc(Cl)cc1
5. Cc1cc(C)cc(N2CC(C)Cn3c2nc2c3c(=O)n(CC(=O)O)c(=O)n2C)c1 (centres undefined)

[0.32, 1.13, -0.34, 15.9, -0.04]

// each compound listed below needs its z-score
1. Nc1cccc2c(S(=O)(=O)N3CCCCC3)cccc12
2. O=[N+]([O-])c1cc(Br)cnc1Sc1n[nH]c(-c2cccs2)n1
3. COc1cccc(C2Oc3ccccc3C3CC(c4ccccc4O)=NN32)c1OC (centres undefined)

[-1.6, -0.81, 6.13]

Source: PubChem BioAssay AID1347074
